biological target: UniProt:P11802; test: Microfluidic LabChip kinase inhibition assay, CDK4-CyclinD1; conditions: CDK4 CyclinD1 IC50 (μM), Table 3a; 200 μM ATP; second value in parentheses on the next line
parameter_measured: log10 IC50 (log10 of the value in µM)

compound | quantitative_readout
CN1CCN(c2ccc(Nc3ncc4c(n3)N(C3CCCCC3)C3(CCNC3=O)C4)cn2)CC1 (stereo not shown) [Compound C201] | -1.41
CN(C)CCOc1ccc(Nc2ncc3c(n2)N(C2CCCC2)C2(CCNC2=O)C3)cc1 (stereo not shown) [Compound C108] | -0.91
CN1CCN(c2ccc(Nc3ncc4c(n3)N(C3CCCC3)C3(CC(=O)NC3=O)C4)cc2)CC1 (single isomer, unassigned) [Compound C137] | -0.69
CN(C)CCOc1ccc(Nc2ncc3c(n2)N(C2CCCC2)C2(CCNC2=O)C3)nc1 (stereo not shown) [Compound C210] | 0.60
CN1CCN(c2ccc(Nc3ncc4c(n3)N(C3CCCC3)C3(CC(=O)NC3=O)C4)cc2)CC1 (single isomer, unassigned) [Compound C136] | -1.59
CN(C)[C@H]1CCN(c2ccc(Nc3ncc4c(n3)N(C3CCCC3)C3(CCNC3=O)C4)cc2F)C1 (stereo partly shown) [Compound C173] | -0.96
O=C1NCCC12Cc1cnc(Nc3ccc(N4CCC(N5CCOCC5)CC4)c(F)c3)nc1N2C1CCCC1 (stereo not shown) [Compound C132] | -1.25

====

target: CDK4-CYCLIND1 (Homo sapiens, UniProt P11802); assay: Microfluidic LabChip kinase inhibition assay, CDK4-CyclinD1; conditions: CDK4 IC50 (μM), Table 2; 200 μM ATP, 1 nM enzyme
Sequence (P11802 whole entry): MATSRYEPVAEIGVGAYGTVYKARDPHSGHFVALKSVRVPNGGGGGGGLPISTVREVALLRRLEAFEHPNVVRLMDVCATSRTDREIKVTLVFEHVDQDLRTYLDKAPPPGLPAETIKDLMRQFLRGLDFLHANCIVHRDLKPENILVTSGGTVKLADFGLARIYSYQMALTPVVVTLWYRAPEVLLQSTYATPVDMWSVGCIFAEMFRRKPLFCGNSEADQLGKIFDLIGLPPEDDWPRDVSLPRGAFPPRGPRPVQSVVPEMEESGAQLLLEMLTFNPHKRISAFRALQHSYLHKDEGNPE
Sequence (P24385 whole entry partner): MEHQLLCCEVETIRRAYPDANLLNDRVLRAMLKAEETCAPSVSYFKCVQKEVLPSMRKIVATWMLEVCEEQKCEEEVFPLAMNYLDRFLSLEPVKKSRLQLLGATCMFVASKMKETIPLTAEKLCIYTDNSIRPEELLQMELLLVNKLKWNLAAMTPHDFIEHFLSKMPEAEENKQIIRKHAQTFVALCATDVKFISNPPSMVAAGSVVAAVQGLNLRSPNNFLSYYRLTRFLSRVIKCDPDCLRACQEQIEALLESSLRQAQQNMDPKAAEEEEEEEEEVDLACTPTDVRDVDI
parameter_measured: IC50 (µM)

molecule | unit_label | lt_gt_eq | quantitative_readout
CN(C)CCOc1ccc(Nc2ncc3c(n2)N(C2CCCC2)C2(CCNC2=O)C3)cn1 (stereo not shown) | µM | = | 0.19
CN1CCN(c2ccc(Nc3ncc4c(n3)N(C3CCCC3)C3(CCCNC3=O)C4)nc2)CC1 (stereo not shown) | µM | = | 29.3
O=C1NCCC12Cc1cnc(Nc3ccc(N4CCNCC4)nc3)nc1N2C1CCCC1 (stereo not shown) | µM | = | 0.0658
CN1CCCC2(Cc3cnc(Nc4ccc(OCCN5CCCCC5)cn4)nc3N2C2CCCC2)C1=O (stereo not shown) | µM | > | 30

====

molecular target: CDK6-CYCLIND3 (Homo sapiens); construct: purchased Carna; test: Microfluidic LabChip kinase inhibition assay, CDK6-CyclinD3; type: biochemical; conditions: Table 2; 300 μM ATP, 2 nM enzyme; read-out: CDK6 IC50
pIC50: −log10 of the molar value.
Let's look at some compounds and their measured pIC50.

compound | lt_gt_eq | pIC50
O=C1NCCC12C(=O)N(C1CCCC1)c1nc(Nc3ccc(N4CCNCC4)c(F)c3)ncc12 (stereo not shown) [Compound C102] | = | 4.59
COc1ccc(CN2CCC3(Cc4cnc(Nc5ccc(N6CCNCC6)cn5)nc4N3C3CCCC3)C2=O)cc1 (stereo not shown) [Compound C29] | < | 4.52
CN1CCN(c2ccc(Nc3ncc4c(n3)N(C3CCCC3)C(=O)C43CCNC3=O)cc2F)CC1 (stereo not shown) [Compound C103] | = | 4.29
O=C1CC2(Cc3cnc(Nc4ccc(N5CCNCC5)cn4)nc3N2C2CCCC2)C(=O)N1 (stereo not shown) [Compound C74] | = | 4.07

====

target: CDK4-CYCLIND1 (Homo sapiens); experiment: Microfluidic LabChip kinase inhibition assay, CDK4-CyclinD1; details: CDK4 CyclinD1 IC50 (μM), Table 3b; 200 μM ATP; second value in parentheses on the next line

molecule | IC50 (µM)
CN(C)CCOc1ccc(Nc2ncc3c(n2)N(C2CCCC2)C2(CCNC2=O)C3)nc1 (stereo not shown) [Compound C210] | 3.96
CN(C)[C@H]1CCN(C(=O)c2ccc(Nc3ncc4c(n3)N(C3CCCC3)C3(CCNC3=O)C4)cc2)C1 (stereo partly shown) [Compound C178] | 0.0453
CN1CCN(c2ccc(Nc3ncc4c(n3)N(C3CCCCC3)C3(CCNC3=O)C4)cn2)CC1 (stereo not shown) [Compound C201] | 0.0393
CN(C)CCOc1ccc(Nc2ncc3c(n2)N(C2CCCC2)C2(CCNC2=O)C3)cc1 (stereo not shown) [Compound C108] | 0.124

====

target: CDK6-CYCLIND3 (Homo sapiens, UniProt Q00534); construct: purchased Carna; test: Microfluidic LabChip kinase inhibition assay, CDK6-CyclinD3; type: biochemical; settings: Table 2; 300 μM ATP, 2 nM enzyme; read-out: CDK6 IC50
Sequence (Q00534 whole entry): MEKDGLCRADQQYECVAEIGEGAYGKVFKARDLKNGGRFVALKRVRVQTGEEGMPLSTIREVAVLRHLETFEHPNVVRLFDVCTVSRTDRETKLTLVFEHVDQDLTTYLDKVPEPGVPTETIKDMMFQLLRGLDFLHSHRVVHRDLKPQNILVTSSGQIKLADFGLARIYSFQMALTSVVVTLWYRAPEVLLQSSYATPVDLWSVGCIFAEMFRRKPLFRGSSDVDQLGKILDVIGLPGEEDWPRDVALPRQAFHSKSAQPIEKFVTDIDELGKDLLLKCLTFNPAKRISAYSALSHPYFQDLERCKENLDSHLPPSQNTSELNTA
Sequence (P30281 whole entry partner): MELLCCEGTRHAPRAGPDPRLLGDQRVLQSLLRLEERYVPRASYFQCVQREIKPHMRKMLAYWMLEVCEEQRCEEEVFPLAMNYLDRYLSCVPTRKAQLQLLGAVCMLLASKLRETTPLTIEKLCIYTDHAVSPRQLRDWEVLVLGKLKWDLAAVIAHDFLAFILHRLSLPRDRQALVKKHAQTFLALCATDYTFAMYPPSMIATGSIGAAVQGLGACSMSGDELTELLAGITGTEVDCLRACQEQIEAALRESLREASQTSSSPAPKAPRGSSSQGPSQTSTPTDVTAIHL
pIC50: −log10 of the molar value.

compound | lt_gt_eq | pIC50
CN1CCC2(Cc3cnc(Nc4ccc(N5CCNCC5)cn4)nc3N2C2CCCC2)C1=O (stereo not shown) | < | 4.52
COc1ccc(CN2CCC3(Cc4cnc(Nc5ccc(N6CCN(C)CC6)cc5)nc4N3C3CCCC3)C2=O)cc1 (stereo not shown) | < | 4.52
CN1CCN(c2ccc(Nc3ncc4c(n3)N(C3CCCC3)C3(CC(=O)NC3=O)C4)cc2)CC1 (stereo not shown) | = | 6.46
CN(C)[C@H]1CCN(c2ccc(Nc3ncc4c(n3)N(C3CCCC3)C(=O)C43CCNC3=O)cc2F)C1 (stereo partly shown) | = | 4.53
CC(C)N1CCN(c2ccc(Nc3ncc4c(n3)N(C3CCCC3)C3(CC(=O)NC3=O)C4)cc2)CC1 (stereo not shown) | = | 6.89
CN1CCN(c2ccc(Nc3ncc4c(n3)N(C3CCCC3)C3(CC(=O)N(C)C3=O)C4)cc2F)CC1 (stereo not shown) | = | 4.86
O=C1CC2(Cc3cnc(Nc4ccc(C5=CCNCC5)cn4)nc3N2C2CCCC2)C(=O)N1 (stereo not shown) | = | 4.50
COc1cc(Nc2ncc3c(n2)N(C2CCCC2)C2(CCNC2=O)C3)ccc1N1CCN(C(C)C)CC1 (stereo not shown) | = | 5.71
CC(C)N1CCN(c2ccc(Nc3ncc4c(n3)N(C3CCCC3)C3(CC(=O)N(C)C3=O)C4)cc2)CC1 (stereo not shown) | = | 6.46
CN1CCN(c2ccc(Nc3ncc4c(n3)N(C3CCCC3)C3(CCCN(Cc5ccccc5)C3=O)C4)cc2F)CC1 (stereo not shown) | = | 4.97
O=C1CC2(Cc3cnc(Nc4ccc(N5CCNCC5)nc4)nc3N2C2CCCC2)C(=O)N1 (stereo not shown) | = | 6.77
O=C1NCCC12Cc1cnc(Nc3cc(C(F)(F)F)c(N4CCNCC4)cn3)nc1N2C1CCCC1 (stereo not shown) | < | 4.52
CN1CCN(c2ccc(Nc3ncc4c(n3)N(C3CCCC3)C3(CCCN(C)C3=O)C4)cc2)CC1 (stereo not shown) | < | 4.52
O=C1CC2(Cc3cnc(Nc4ccc(OCCN5CCCC5)nc4)nc3N2C2CCCC2)C(=O)N1 (stereo not shown) | = | 6.59
CN1CCN(c2ccc(Nc3ncc4c(n3)N(C3CCCC3)C3(CCCN(Cc5ccccc5)C3=O)C4)nc2)CC1 (stereo not shown) | < | 4.52
CN1CCN(c2ccc(Nc3ncc4c(n3)N(C3CCCC3)C3(CCNC3=O)C4)nc2)CC1 (stereo not shown) | = | 5.43
CN(C)CCOc1ccc(Nc2ncc3c(n2)N(C2CCCC2)C2(CC(=O)NC2=O)C3)cn1 (stereo not shown) | = | 6.44
O=C1NCCC12Cc1cnc(Nc3ccc(N4CCNCC4)cc3)nc1N2C1CCCC1 (stereo not shown) | = | 6.37
CN1CCN(c2ccc(Nc3ncc4c(n3)N(C3CCCC3)C(=O)C43CCNC3=O)cc2)CC1 (stereo not shown) | = | 4.36
O=C1CC2(Cc3cnc(Nc4ccc(N5CCNCC5)cc4)nc3N2C2CCCC2)C(=O)N1 (stereo not shown) | = | 6.88
O=C1NCCC12Cc1cnc(Nc3ccc(C4=CCNCC4)cn3)nc1N2C1CCCC1 (stereo not shown) | = | 6.10
O=C1NCCC12Cc1cnc(Nc3ccc(N4CCOCC4)c(F)c3)nc1N2C1CCCC1 (stereo not shown) | = | 6.03
COc1ccc(CN2CCC3(Cc4cnc(Nc5cc(C(F)(F)F)c(N6CCNCC6)cn5)nc4N3C3CCCC3)C2=O)cc1 (stereo not shown) | < | 4.52
O=C1NCCC12Cc1cnc(Nc3ccc(N4CCNCC4)nc3)nc1N2C1CCCC1 (stereo not shown) | = | 6.59
O=C1NCCC12Cc1cnc(Nc3ccc(N4CCC(N5CCOCC5)CC4)cc3)nc1N2C1CCCC1 (stereo not shown) | = | 6.00
O=C1NCCC12Cc1cnc(Nc3ccc(N4CC5(CNC5)C4)c(F)c3)nc1N2C1CCCC1 (stereo not shown) | = | 6.47
CN1CCCC2(Cc3cnc(Nc4ccc(N5CCNCC5)cn4)nc3N2C2CCCC2)C1=O (stereo not shown) | < | 4.52
CN(C)CCOc1ccc(Nc2ncc3c(n2)N(C2CCCC2)C2(CC(=O)NC2=O)C3)nc1 (stereo not shown) | = | 7.02
CC(C)N1CCN(c2ccc(Nc3ncc4c(n3)N(C3CCCC3)C3(CC(=O)NC3=O)C4)nc2)CC1 (stereo not shown) | = | 6.86
O=C1CC2(Cc3cnc(Nc4ccc(OCCN5CCCC5)c(F)c4)nc3N2C2CCCC2)C(=O)N1 (stereo not shown) | = | 6.62
CN1CCN(c2ccc(Nc3ncc4c(n3)N(C3CCCC3)C3(CC(=O)N(C)C3=O)C4)cc2)CC1 (stereo not shown) | = | 5.55
